TARGET_UNDER_TEST: substance P receptor (Cavia porcellus)
Construct: A preparation of a crude lung membrane sample was prepared; from tissue; host or cells: guinea-pig lung (crude membrane sample)
Sequence (P30547 whole entry): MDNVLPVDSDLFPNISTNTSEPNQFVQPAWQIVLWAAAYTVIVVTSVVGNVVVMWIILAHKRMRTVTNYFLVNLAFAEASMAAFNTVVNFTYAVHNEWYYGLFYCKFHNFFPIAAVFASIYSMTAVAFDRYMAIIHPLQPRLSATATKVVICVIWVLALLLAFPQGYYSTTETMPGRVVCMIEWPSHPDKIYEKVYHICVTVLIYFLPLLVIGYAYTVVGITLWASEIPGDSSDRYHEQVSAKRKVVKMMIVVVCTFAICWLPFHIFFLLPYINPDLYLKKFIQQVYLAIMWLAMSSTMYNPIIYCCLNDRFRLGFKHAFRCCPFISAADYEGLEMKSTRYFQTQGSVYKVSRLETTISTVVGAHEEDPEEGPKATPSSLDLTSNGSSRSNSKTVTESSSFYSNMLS
ASSAY_OVERVIEW: Test for binding to guinea-pig substance P receptor (crude lung membrane sample)
SETUP_CONDITIONS: crude guinea-pig lung membrane sample, [3H]substance P; Ki from IC50 and Kd; read-out: Ki
Structures can show the parent of a compound that is named as a salt.
MEASURE_NAME: Ki (nM)
One number for each entry, in nM.

Completed entries (count: 3):
CN(CCN1CCC(OC(=O)Nc2ccccc2-c2ccccc2)CC1)C(=O)CCCCCNCc1ccc(C(=O)N(C)CCCN(C)C(=O)CO[C@H]2Cc3ccccc3C23CCN(CC[C@@]2(c4ccc(F)cc4)CN(C(=O)c4cc(C(F)(F)F)cc(C(F)(F)F)c4)CO2)CC3)nc1 [Example 7] ... 0.57
CN(CCN1CCC(OC(=O)Nc2ccccc2-c2ccccc2)CC1)C(=O)CCOCCNc1ccc(C(=O)N(C)CCCN(C)C(=O)CO[C@H]2Cc3ccccc3C23CCN(CC[C@@]2(c4ccc(F)cc4)CN(C(=O)c4cc(C(F)(F)F)cc(C(F)(F)F)c4)CO2)CC3)cc1 [Example 29, trihydrochloride] ... 1.4
Cc1cc(NCCCCCC(=O)N(C)CCN2CCC(OC(=O)Nc3ccccc3-c3ccccc3)CC2)ccc1C(=O)N(C)CCCN(C)C(=O)CO[C@H]1Cc2ccccc2C12CCN(CC[C@@]1(c3ccc(F)cc3)CN(C(=O)c3cc(C(F)(F)F)cc(C(F)(F)F)c3)CO1)CC2 [Example 18, trihydrochloride] ... 1.8

query: Give the reported Ki for this compound. Cc1nc(N(C)CCCCCC(=O)N(C)CCN2CCC(OC(=O)Nc3ccccc3-c3ccccc3)CC2)sc1C(=O)N(C)CCN(C)C(=O)CO[C@H]1Cc2ccccc2C12CCN(CC[C@@]1(c3ccc(F)cc3)CN(C(=O)c3cc(C(F)(F)F)cc(C(F)(F)F)c3)CO1)CC2 [Example 108, trihydrochloride]
result: 1.3

* * *

TARGET_UNDER_TEST: neurokinin NK2 receptor (Cavia porcellus, UniProt Q64077)
Construct: Using healthy guinea pigs (body weight, 350 to 550 g; Hartley male guinea pigs); from tissue; host or cells: live anaesthetised Hartley male guinea pigs (airway, in vivo)
Sequence (Q64077 whole entry): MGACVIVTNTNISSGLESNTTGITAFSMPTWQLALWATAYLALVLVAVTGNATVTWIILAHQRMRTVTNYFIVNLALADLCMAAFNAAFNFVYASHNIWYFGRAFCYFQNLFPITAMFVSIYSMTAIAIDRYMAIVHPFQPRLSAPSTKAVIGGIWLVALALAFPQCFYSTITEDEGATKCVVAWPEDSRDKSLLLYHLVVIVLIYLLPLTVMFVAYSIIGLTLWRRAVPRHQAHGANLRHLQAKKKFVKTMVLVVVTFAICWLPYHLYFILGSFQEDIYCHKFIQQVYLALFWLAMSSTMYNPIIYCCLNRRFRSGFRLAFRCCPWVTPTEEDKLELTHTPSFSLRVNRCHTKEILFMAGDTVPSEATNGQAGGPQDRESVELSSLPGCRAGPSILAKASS
ASSAY_OVERVIEW: Effect of suppressing neurokinin A-induced airway contraction (in vivo, intratracheal administration)
Set-up: species or system guinea pig
SETUP_CONDITIONS: guinea pig; guinea pigs, intratracheal administration 60 minutes before 4 μg/kg i.v. NKA; AUC of increase in airway pressure over 10 minutes; read-out: ID50 (the source's name)
Where a name gives a salt, the structure may show the parent alone.
MEASURE_NAME: ED50 (mg/kg)
Numbers only, in mg/kg.

CN(CCN1CCC(OC(=O)Nc2ccccc2-c2ccccc2)CC1)C(=O)CCCCCNc1ccc(C(=O)N(CCCN(C)C(=O)CO[C@H]2Cc3ccccc3C23CCN(CC[C@@]2(c4ccc(F)cc4)CN(C(=O)c4cc(C(F)(F)F)cc(C(F)(F)F)c4)CO2)CC3)C2CC2)cc1 [Example 25, trihydrochloride] ... 0.0727
CN(CCN1CCC(OC(=O)Nc2ccccc2-c2ccccc2)CC1)C(=O)CCCCCCN(C)c1ccc(C(=O)N(C)CCCN(C)C(=O)CO[C@H]2Cc3ccccc3C23CCN(CC[C@@]2(c4ccc(F)cc4)CN(C(=O)c4cc(C(F)(F)F)cc(C(F)(F)F)c4)CO2)CC3)cc1 [Example 40, trihydrochloride] ... 0.0573
CN(CCN1CCC(OC(=O)Nc2ccccc2-c2ccccc2)CC1)C(=O)CCCCCNc1ccc(C(=O)N(C)CCCN(C)C(=O)CO[C@H]2Cc3ccccc3C23CCN(CC[C@@]2(c4ccc(F)cc4)CN(C(=O)c4cc(C(F)(F)F)cc(C(F)(F)F)c4)CO2)CC3)cc1 ... 0.0151

Then there is this compound:
query: Identify the reported ED50 for the following entry. CN(CCN1CCC(OC(=O)Nc2ccccc2-c2ccccc2)CC1)C(=O)CCCCCNc1ncc(C(=O)N(C)CCCN(C)C(=O)CO[C@H]2Cc3ccccc3C23CCN(CC[C@@]2(c4ccc(F)cc4)CN(C(=O)c4cc(C(F)(F)F)cc(C(F)(F)F)c4)CO2)CC3)cn1 [Example 14, trihydrochloride]
result: 0.0284
